Test system: PC3 cells
EXPERIMENTAL_PROTOCOL: MTT assay, cytotoxic activity
Format: cell-based, human
TEST_SETTINGS: MTT, 72 h
REPORTED_PROPERTY: pIC50
// returns pIC50 (minus log10 of molar concentration), number only

O=C(O)c1cn(C2CC2)c2cc(N3CCN(C(=O)CCl)CC3)c(F)cc2c1=O ... 5.69

Query: pIC50; subject: O=C(O)c1cn(C2CC2)c2cc(N3CCNCC3)c(F)cc2c1=O [CP, ciprofloxacin, reference compound]
Response: 4.00

====

Tested on: E. cloacae 8
EXPERIMENTAL_PROTOCOL: MIC, twofold microdilution, clinical strain
Type: cell-based, Escherichia cloacae
TEST_SETTINGS: Enterobacter cloacae, 8; clinical strain, 18 h
REPORTED_PROPERTY: MIC (µg/mL)
Kindly answer with a numeric value in µg/mL, unit omitted.

Query: MIC; subject: "O=C(O)c1cn(C2CC2)c2cc(N3CCN(C(=O)CCCCCl)CC3)c(F)cc2c1=O"
Response: 0.8

Query: MIC; subject: "O=C(O)c1cn(C2CC2)c2cc(N3CCN(C(=O)CCCC(F)(F)F)CC3)c(F)cc2c1=O"
Response: 8

Query: MIC; subject: "O=C(O)c1cn(C2CC2)c2cc(N3CCN(C(=O)CCCCl)CC3)c(F)cc2c1=O"
Response: 0.05

Query: MIC; subject: "O=C(O)c1cn(C2CC2)c2cc(N3CCN(C(=O)CBr)CC3)c(F)cc2c1=O"
Response: 0.8

Query: MIC; subject: "O=C(O)c1cn(C2CC2)c2cc(N3CCN(C(=O)CCCBr)CC3)c(F)cc2c1=O"
Response: 0.05

Query: MIC; subject: "O=C(O)c1cn(C2CC2)c2cc(N3CCN(CCCCC(=O)N4CCN(c5cc6c(cc5F)c(=O)c(C(=O)O)cn6C5CC5)CC4)CC3)c(F)cc2c1=O"
Response: 3.2

Query: MIC; subject: "O=C(O)c1cn(C2CC2)c2cc(N3CCN(C(=O)C4CC4)CC3)c(F)cc2c1=O"
Response: 0.05

The reported numbers originate from paper PMC10233829.
